- Test system: MDA-MB-231 breast
- protocol.description: NCI-60 one-dose screen, 48 h (100 = growth as untreated, 0 = no growth, -100 = all killed)
- conditions: 10 µM unless noted
The panel holds about 83,000 compounds, 20% with a hit somewhere; the sample as a whole holds those more often.
Please mark met if the recorded growth is equal to or greater than 80%, and not met if it falls below.

Task item: API: above_or_equal(metric=growth, cutoff=80%) for item Cc1ccc(S(=O)(=O)N2CCC(=O)c3ccccc32)cc1
Reply: not met

Task item: API: above_or_equal(metric=growth, cutoff=80%) for item O=C1Nc2ccccc2/C1=C\c1c[nH]c2ccc(Br)cc12
Reply: not met

Task item: API: above_or_equal(metric=growth, cutoff=80%) for item N#Cc1c(-c2ccccc2)nc(SCc2nnc(-c3ccc(Cl)cc3)o2)[nH]c1=O
Reply: met

Task item: API: above_or_equal(metric=growth, cutoff=80%) for item C=C1CC[C@@H]2C(C)(C)[C@@H](O)CC[C@@]2(C)[C@@H]1COc1ccc2ccc(=O)oc2c1
Reply: met

The values you see were collected from PubChem BioAssay (NCI).
